# testedSystem: human mAChR M1 (Homo sapiens, UniProt P11229)
# Sequence (P11229 whole entry): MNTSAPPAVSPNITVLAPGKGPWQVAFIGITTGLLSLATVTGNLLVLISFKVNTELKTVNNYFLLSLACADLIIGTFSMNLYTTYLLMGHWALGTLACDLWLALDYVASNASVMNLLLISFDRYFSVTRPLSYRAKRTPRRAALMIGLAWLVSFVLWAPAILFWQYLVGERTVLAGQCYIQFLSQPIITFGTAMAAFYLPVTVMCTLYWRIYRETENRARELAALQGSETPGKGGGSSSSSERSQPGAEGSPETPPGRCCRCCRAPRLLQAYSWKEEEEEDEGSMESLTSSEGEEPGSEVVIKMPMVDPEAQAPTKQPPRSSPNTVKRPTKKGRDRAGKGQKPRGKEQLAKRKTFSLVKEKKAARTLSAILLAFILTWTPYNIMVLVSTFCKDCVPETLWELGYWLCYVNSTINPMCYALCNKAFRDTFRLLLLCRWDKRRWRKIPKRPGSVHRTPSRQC
# testMethodNotes: mAChR M1 cell-based functional assay (calcium mobilization, Fluo-4, FDSS)
# conditions: CHO-K1 cells stably expressing hM1; calcium flux; concentration-dependent increase in the EC20 acetylcholine response
measurementName: pEC50
To interpret pEC50, take it as minus log10 of a concentration measured in moles per litre.

Tell us which pEC50 value is on record for `Cn1cc2c(-c3cc(F)c(CN4Cc5ccn(C)c5C4=O)c(F)c3)cccc2n1`
5.73

Tell us which pEC50 value is on record for `Cn1cc2c(-c3cc(F)c(CN4Cc5cc[nH]c5C4=O)c(F)c3)cccc2n1`
5.73

Tell us which pEC50 value is on record for `Cn1cc(-c2ccc(CN3Cc4ccsc4C3=O)c(F)c2)cn1`
5.31

Tell us which pEC50 value is on record for `Cn1cc2cc(-c3cc(F)c(CN4Cc5ccsc5C4=O)c(F)c3)ccc2n1`
6.61

Tell us which pEC50 value is on record for `Cn1cc2c(-c3cc(F)c(CN4Cc5occc5C4=O)c(F)c3)cccc2n1`
5.44

Tell us which pEC50 value is on record for `O=C1c2ccsc2CN1Cc1c(F)cc(-c2ccc3nccn3c2)cc1F`
6.30

Tell us which pEC50 value is on record for Cn1cc2cc(-c3cc(F)c(CN4Cc5cnn(CC6CCCO6)c5C4=O)c(F)c3)ccc2n1 (centres unmarked)
5.83

Tell us which pEC50 value is on record for Cn1cc(-c2cc(F)c(CN3Cc4ccn(CC5CCCO5)c4C3=O)c(F)c2)cn1 (centres unmarked)
5.46

----------
I'd appreciate it if you could supply Emax values for the items below.
# testedSystem: human mAChR M1 (Homo sapiens, UniProt P11229)
# Construct: host or cells: CHO-K1 (ATCC), stably transfected using Lipofectamine 2000
# testMethodNotes: mAChR M1 cell-based functional assay (calcium mobilization, Fluo-4, FDSS)
# conditions: CHO-K1 cells stably expressing hM1; calcium flux; PAM mode with EC20 acetylcholine
Please reply with the bare figure in % and do not write the unit itself.

Tell us which Emax value is on record for `Cn1cc2c(-c3cc(F)c(CN4Cc5ccn(C)c5C4=O)c(F)c3)cccc2n1`
36

Tell us which Emax value is on record for `Cn1cc(-c2cc(F)c(CN3Cc4occc4C3=O)c(F)c2)cn1`
78

Tell us which Emax value is on record for `Cn1cc2c(-c3cc(F)c(CN4Cc5cc[nH]c5C4=O)c(F)c3)cccc2n1`
36

Tell us which Emax value is on record for `COc1ccc(Cn2ncc3c2C(=O)N(Cc2c(F)cc(-c4cccc5nn(C)cc45)cc2F)C3)cc1`
45

Tell us which Emax value is on record for `Cn1cc2cc(-c3ccc(CN4Cc5ncsc5C4=O)c(F)c3)ccc2n1`
51

Tell us which Emax value is on record for `Cn1cc2c(-c3cc(F)c(CN4Cc5cnn(CCN6CCCC6)c5C4=O)c(F)c3)cccc2n1`
91

Tell us which Emax value is on record for `Cn1cc(-c2ccc(CN3Cc4sccc4C3=O)c(F)c2)cn1`
69

Tell us which Emax value is on record for `COCCn1ncc2c1C(=O)N(Cc1c(F)cc(-c3cccc4nn(C)cc34)cc1F)C2`
87

Tell us which Emax value is on record for `Cn1cc2c(-c3cc(F)c(CN4Cc5occc5C4=O)c(F)c3)cccc2n1`
80

Tell us which Emax value is on record for `O=C1c2ccsc2CN1Cc1c(F)cc(-c2ccc3nccn3c2)cc1F`
30

Tell us which Emax value is on record for Cc1nn(C)cc1-c1cc(F)c(CN2Cc3ccn(CC4CCCO4)c3C2=O)c(F)c1 (stereo not shown)
51

Tell us which Emax value is on record for `Cn1cc(-c2cc(F)c(CN3Cc4ncsc4C3=O)c(F)c2)cn1`
40

Tell us which Emax value is on record for `Cn1cc2c(-c3cc(F)c(CN4Cc5ccn(CCN6CCCC6)c5C4=O)c(F)c3)cccc2n1`
57

Tell us which Emax value is on record for `O=C1c2ccsc2CN1Cc1ccc(-c2cscn2)cc1`
30

Tell us which Emax value is on record for `Cn1cc2cc(-c3cc(F)c(CN4Cc5scc(Br)c5C4=O)c(F)c3)ccc2n1`
56

Tell us which Emax value is on record for `Cn1cc2c(-c3cc(F)c(CN4Cc5ccn(CC6CCOCC6)c5C4=O)c(F)c3)cccc2n1`
59

Tell us which Emax value is on record for `Cn1cc2cc(-c3cc(F)c(CN4Cc5ncsc5C4=O)c(F)c3)ccc2n1`
28

Tell us which Emax value is on record for `Cn1cc(-c2ccc(CN3Cc4ncsc4C3=O)c(F)c2)cn1`
47

Tell us which Emax value is on record for Cn1cc2c(-c3cc(F)c(CN4Cc5ccn(CC6CCCO6)c5C4=O)c(F)c3)cccc2n1 (stereo not shown)
60

Tell us which Emax value is on record for `Cc1[nH]cc2c1C(=O)N(Cc1c(F)cc(-c3cccc4nn(C)cc34)cc1F)C2`
51

Tell us which Emax value is on record for `CCCn1ccc2c1C(=O)N(Cc1c(F)cc(-c3cccc4nn(C)cc34)cc1F)C2`
59

Tell us which Emax value is on record for `Cn1cc2c(-c3cc(F)c(CN4Cc5cnn(Cc6ccccn6)c5C4=O)c(F)c3)cccc2n1`
63

Tell us which Emax value is on record for `Cn1cnc2ccc(-c3cc(F)c(CN4Cc5sccc5C4=O)c(F)c3)cc21`
60

Tell us which Emax value is on record for `Cn1cc2c(-c3cc(F)c(CN4Cc5cn[nH]c5C4=O)c(F)c3)cccc2n1`
87

Tell us which Emax value is on record for `Cc1nn(C)cc1-c1cc(F)c(CN2Cc3occc3C2=O)c(F)c1`
90

Tell us which Emax value is on record for `Cn1cc2c(-c3cc(F)c(CN4Cc5cnn(CCO)c5C4=O)c(F)c3)cccc2n1`
80

Tell us which Emax value is on record for Cn1cc(-c2cc(F)c(CN3Cc4cn(CC5CCCO5)nc4C3=O)c(F)c2)cn1 (stereo not shown)
35

Tell us which Emax value is on record for `Cc1ccc(-c2cc(F)c(CN3Cc4ncsc4C3=O)c(F)c2)cn1`
27

Tell us which Emax value is on record for `Cn1cc2c(-c3cc(F)c(CN4Cc5ccn(CCCO)c5C4=O)c(F)c3)cccc2n1`
69

Tell us which Emax value is on record for `Cn1cc2c(-c3cc(F)c(CN4Cc5cn(CCO)nc5C4=O)c(F)c3)cccc2n1`
74

Tell us which Emax value is on record for `Cc1nn(C)cc1-c1ccc(CN2Cc3sccc3C2=O)c(F)c1`
70

Tell us which Emax value is on record for Cn1cc2c(-c3cc(F)c(CN4Cc5cn(CC6CCCO6)nc5C4=O)c(F)c3)cccc2n1 (stereo not shown)
58

Tell us which Emax value is on record for `Cn1cc2c(-c3cc(F)c(CN4Cc5cn(CCN6CCCC6)nc5C4=O)c(F)c3)cccc2n1`
57

Tell us which Emax value is on record for `Cn1cc2cc(-c3cc(F)c(CN4Cc5ccsc5C4=O)c(F)c3)ccc2n1`
40
